System: U2OS
ASSAY EXPLANATION: Multiplex assay against U2OS
Format: toxicity, cell-based
ASSAY CONDITIONS: human, 48 h, 10 µM, compound concentration 10 uM, replicate 2
Lab note: anything with Population Pyknosed Nuclei (%) below 20% is marked yes; values at 20% or higher are marked no.

These solved cases illustrate the format of a correct answer.
CC[C@H]1OC(=O)[C@H](C)[C@@H](O[C@H]2C[C@@](C)(OC)[C@@H](O)[C@H](C)O2)[C@H](C)[C@@H](O[C@@H]2O[C@H](C)C[C@H](N(C)C)[C@H]2O)[C@@]2(C)CC(C)=C(O2)[C@H](C)[C@@H](O)[C@]1(C)O; no
Cc1ccccc1C(=O)Nc1ccc(C(=O)N2CCCC(N(C)C)c3ccccc32)cc1.Cl (stereo not drawn); no
CC1(COc2ccc3c(c2)ncn3-c2ccc3cccc(N4CCC(N)CC4)c3n2)COC1; no
COc1ccc2c(c1)C(C(=O)N(Cc1ccc(N(C)C)cc1)c1ccc(C(C)C)cc1)CCC2.Cl (stereo not drawn); no
CSc1ccccc1N1CCN(CCCCCC(=O)NC2CCCc3ccccc32)CC1.Cl (stereo not drawn); no
N[C@@]1(C(=O)O)CO[C@H]2[C@H](C(=O)O)[C@H]21; yes
CCOc1c2c(c(OCC)c3ncccc13)CN(c1ccc(CS(=O)(=O)NC(=O)Cc3ccccc3OC)cc1C)C2=O; yes

Is it true that Population Pyknosed Nuclei (%) reported for Cl.Clc1ccc2nsnc2c1NC1=NCCN1 [TIZANIDINE HYDROCHLORIDE] is less than 20%? yes
